Assay type: cell-based
test.settings: Enterohaemorrhagic E. coli, overnight, 96-well plate
No end group written: not given here.
measurement.label: MIC, EHEC (µg/mL)

INSERT INTO measurements (biopolymer_sequence, measurement_label, endpoint_result) VALUES
  ('KCKLFKKMLMLALKKVLTTGLPALKLTK [SEQ ID NO: 40]', 'MIC, EHEC', 2),
  ('KWKSLVMMFKKPARRIFHTALKPISS [SEQ ID NO: 51]', 'MIC, EHEC', 8),
  ('KWKSYAHTIMSPVRLIFHTALKPISS [SEQ ID NO: 48]', 'MIC, EHEC', 2),
  ('KWKSYAHTIMSPVRLVFHTALKPISS [SEQ ID NO: 54]', 'MIC, EHEC', 32),
  ('KWKSFLRTFKSPVRTVFHTALKPISS [SEQ ID NO: 53]', 'MIC, EHEC', 8);

---

Type: cell-based
test.settings: 24 h
No end group written: not given here.
Decide using MIC, S. aureus alone. Strictly below 60 mg/L: fulfilled. Equal to or above 60 mg/L: not fulfilled.

INSERT INTO results (biopolymer_sequence, class) VALUES
  ('RAAFKWAWAWWRRK [SEQ ID NO: 23]', 'fulfilled'),
  ('RRAWWKAWWARRK [SEQ ID NO: 20]', 'fulfilled'),
  ('KTKKFAKMLMMALKKVVSTAKPLAILS [SEQ ID NO: 42]', 'not fulfilled'),
  ('RPAWKYWWPWPWPRRK [SEQ ID NO: 22]', 'fulfilled'),
  ('KMKSFAKMLMLALKKVLKVLTTALTLKAGLPS [SEQ ID NO: 43]', 'not fulfilled'),
  ('RPRYPWWPWWPYRPRK [SEQ ID NO: 19]', 'fulfilled'),
  ('RAPYWPWAWARPRK [SEQ ID NO: 21]', 'not fulfilled'),
  ('RRRWKWAWPRRK [SEQ ID NO: 24]', 'fulfilled'),
  ('KESIKVIIRGMMVRMKK [SEQ ID NO: 35]', 'not fulfilled');

---

Type: cell-based
test.settings: Pseudomonas aeruginosa, overnight, 96-well plate
No end group written: not given here.
Form field: MIC, P. aerug. (one value per entry).
measurement.label: MIC, P. aerug. (µg/mL)

INSERT INTO measurements (biopolymer_sequence, measurement_label, endpoint_result) VALUES
  ('KWKSLVMMFKKPARRIFHTALKPISS [SEQ ID NO: 51]', 'MIC, P. aerug.', 8),
  ('KCKLFKKMLMLALKKVLTTGLPALKLTK [SEQ ID NO: 40]', 'MIC, P. aerug.', 8),
  ('KWKSYAHTIMSPVRLVFHTALKPISS [SEQ ID NO: 54]', 'MIC, P. aerug.', 16),
  ('KWKSFLRTFKSPVRTVFHTALKPISS [SEQ ID NO: 53]', 'MIC, P. aerug.', 8),
  ('KWKSYAHTIMSPVRLIFHTALKPISS [SEQ ID NO: 48]', 'MIC, P. aerug.', 128);

---

Recorded ID#:ctrl intensity ratio, M14565 cytochrome P450 by entry
System: A549 epithelial cells
experimental.protocol: Human Operon arrays (PRHU04-S1) of A549 cells treated with peptide alone (Tables 31-37, 53)
test.settings: peptide 50 μg/ml, 4 h, A549 cells
No end group written: not given here.
measurement.label: ID#:ctrl intensity ratio, M14565 cytochrome P450

INSERT INTO assay_data (biopolymer_sequence, endpoint_result) VALUES
  ('SLPIKHDRLPATS [ID 15]', 3.6),
  ('DLPAKRGSAPGST [ID 12]', 10.6),
  ('ELPLKRGRVPVE [SEQ ID NO: 16]', 10.1),
  ('TTLGPVKRDSIPGE [ID 14]', 5.0),
  ('NLPDLKKPRVPATS [ID 17]', 6.3);
